Target: porcine pancreatic elastase (PPE) (Sus scrofa, UniProt P00772)
Construct: purchased Merck Sigma Aldrich (Milano, Italy)
Sequence (P00772 27-266): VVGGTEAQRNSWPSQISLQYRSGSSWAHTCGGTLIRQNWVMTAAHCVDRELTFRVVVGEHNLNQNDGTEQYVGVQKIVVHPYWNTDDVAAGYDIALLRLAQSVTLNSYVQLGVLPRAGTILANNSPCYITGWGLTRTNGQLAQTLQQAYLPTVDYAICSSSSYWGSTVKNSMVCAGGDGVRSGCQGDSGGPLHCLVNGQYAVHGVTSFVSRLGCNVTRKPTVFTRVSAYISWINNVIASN
Assay: Elastase inhibition assay with SANA substrate
Assay type: biochemical
Details: PPE, 50 µM compound, SANA substrate, mean ± SD, n = 3
Use 30% as the dividing line for %I @50 μM, with the line itself on the Condition met side and lower values as Condition not met.

Look over these answered cases.
(Q) Has Cc1cc(C)cc(Cn2c(SCC(=O)Nc3ccccc3Br)nc3ccc(Cl)cc32)c1 a recorded %I @50 μM greater than or equal to 30%?
(A) Condition met

(Q) Has Cc1cc(C)cc(Cn2c(SCC(=O)Nc3ccc(S(N)(=O)=O)cc3Cl)nc3ccccc32)c1 a recorded %I @50 μM greater than or equal to 30%?
(A) Condition not met

(Q) Has Cc1cc(C)cc(Cn2c(SCC(=O)Nc3ccc(C)cc3Cl)nc3ccc(Cl)cc32)c1 a recorded %I @50 μM greater than or equal to 30%?
(A) Condition met

(Q) Has Cc1cc(C)cc(Cn2c(SCC(=O)Nc3ccc(S(C)(=O)=O)cc3Cl)nc3ccc(Cl)cc32)c1 a recorded %I @50 μM greater than or equal to 30%?
(A) Condition met

(Q) Has Cc1cc(C)cc(Cn2c(SCC(=O)Nc3ccccc3Cl)nc3ccc(Cl)cc32)c1 a recorded %I @50 μM greater than or equal to 30%?
(A) Condition met

Further cases:
(Q) Has Cc1cc(C)cc(Cn2c(SCC(=O)Nc3ccccc3Br)nc3ccccc32)c1 a recorded %I @50 μM greater than or equal to 30%?
(A) Condition not met

(Q) Has Cc1cc(C)cc(Cn2c(SCC(=O)Nc3ccc(S(C)(=O)=O)cc3Cl)nc3ccccc32)c1 a recorded %I @50 μM greater than or equal to 30%?
(A) Condition not met

====

Assay: Relative lipophilicity by reverse-phase TLC (RM)
Format: physicochemical
Details: RP-TLC C18, acetone–water 2/1 v/v, 25 °C, RM = log[(1/RF) − 1]
Exercise: for every item that follows, state its recorded RM (relative lipophilicity).
Give bare numbers.

Answered cases to consult:
(Q) Supply RM (relative lipophilicity) value. Item: Cc1cc(C)cc(Cn2c(SCC(=O)Nc3ccc(C)cc3Cl)nc3ccc(Cl)cc32)c1 [Compound 8]
(A) 1.121

(Q) Supply RM (relative lipophilicity) value. Item: Cc1cc(C)cc(Cn2c(SCC(=O)Nc3ccccc3Cl)nc3ccc(Cl)cc32)c1 [Compound 6]
(A) 1.221

(Q) Supply RM (relative lipophilicity) value. Item: Cc1cc(C)cc(Cn2c(SCC(=O)Nc3ccc(S(C)(=O)=O)cc3Cl)nc3ccccc32)c1 [Compound 4]
(A) 0.678

Could I get RM (relative lipophilicity) for every one of these entries?
1. Cc1cc(C)cc(Cn2c(SCC(=O)Nc3ccccc3Cl)nc3ccccc32)c1 [Compound 2]
2. Cc1cc(C)cc(Cn2c(SCC(=O)Nc3ccc(S(N)(=O)=O)cc3Cl)nc3ccccc32)c1 [Compound 5]

(A)
[0.971, 0.558]

Could I get RM (relative lipophilicity) for every one of these entries?
1. Cc1cc(C)cc(Cn2c(SCC(=O)Nc3ccccc3Br)nc3ccccc32)c1 [Compound 3]
2. Cc1cc(C)cc(Cn2c(SCC(=O)Nc3ccc(C)cc3Cl)nc3ccccc32)c1 [Compound 1]
3. Cc1cc(C)cc(Cn2c(SCC(=O)Nc3ccccc3Br)nc3ccc(Cl)cc32)c1 [Compound 7]
4. Cc1cc(C)cc(Cn2c(SCC(=O)Nc3ccc(S(C)(=O)=O)cc3Cl)nc3ccc(Cl)cc32)c1 [Compound 9]

(A)
[0.938, 1.023, 1.195, 1.023]

Provenance of the data: paper PMC12913230
